Cited source for all entries: ChEMBL document CHEMBL6071150

assay: Oral bioavailability in Beagle dog at 3 mg/kg by LC-MS/MS analysis; assay type: ADME, organism-based, Canis lupus familiaris; conditions: in vivo
MEASURED METRIC: bioavailability

CPD SMILES	MEASURED METRIC	MEAS VALUE
C[C@H]1Cc2ccccc2N1C(=O)Cc1nc(N2CCOCC2)cc(=O)[nH]1	bioavailability	67%

###

test: Plasma protein binding in mouse; assay type: ADME, cell-free; conditions: read-out: PPB (converted)

CPD SMILES	fraction unbound
C[C@H](NC(=O)c1c(N)ccc2cccnc12)c1cc2cccc(Cl)c2c(=O)n1-c1ccccc1	0.29

###

experiment: Oral bioavailability in rat at 1 mg/kg; format: ADME, organism-based; conditions: in vivo
MEASURED METRIC: bioavailability (%)

CPD SMILES	MEASURED METRIC	MEAS VALUE
CC1(C)OCCn2c1nc1c(N3CCOCC3)nc(-c3cnc(N)nc3)nc12	bioavailability	77

###

assay: Cmax in mouse at 1 mg/kg, iv; assay type: ADME, organism-based; conditions: in vivo

COMPOUND	UNITS TEXT	Cmax
Cc1nc(NC(=O)N2CCC[C@H]2C(N)=O)sc1-c1ccnc(C(C)(C)C(F)(F)F)c1 [ALPELISIB]	nM	520

###

assay: Oral bioavailability in mouse at 3 mg/kg by LC-MS/MS analysis; format: ADME, organism-based; conditions: in vivo
MEASURED METRIC: bioavailability (%)

CPD SMILES	MEASURED METRIC	MEAS VALUE
C[C@H]1Cc2ccccc2N1C(=O)Cc1nc(N2CCOCC2)cc(=O)[nH]1	bioavailability	30

###

assay: Metabolic stability in mouse liver microsomes assessed as half life; format: ADME, Microsome
MEASURED METRIC: half-life

CPD SMILES	MEAS VALUE
C[C@H](NC(=O)c1c(N)nn2cccnc12)c1cc2cccc(C#Cc3cnn(C)c3)c2c(=O)n1-c1ccccc1	> 6 h

###

assay: Half life in SCID mouse at 3 mg/kg, po; type: ADME, organism-based; details: in vivo
MEASURED METRIC: half-life (h)

CPD SMILES	MEAS VALUE
C[C@H]1Cc2ccccc2N1C(=O)Cc1nc(N2CCOCC2)cc(=O)[nH]1	1.4

###

molecular target: CYP450 (Homo sapiens, UniProt P04798+P05177+P05181+P08684+P10632+P10635+P11509+P11712+P13584+P20813+P20815+P20853+P24462+P24903+P33260+P33261+P51589+P78329+P98187+Q02928+Q08477+Q16678+Q16696+Q5TCH4+Q6VVX0+Q7Z449+Q8TAV3+Q96SQ9+Q9HB55); experiment: Inhibition of CYP450 (unknown origin); assay type: ADME, protein assay

CPD SMILES	IC50
Cc1nc(NC(=O)N2CCC[C@H]2C(N)=O)sc1-c1ccnc(Nc2ccccc2C(C)(C)C)n1	> 10 µM

###

assay: Oral bioavailability in human; format: ADME, organism-based; settings: in vivo

MOLECULE	bioavailability [%]
C[C@H](Nc1ncnc2[nH]cnc12)c1cc2ccc(F)cc2nc1-c1ccccn1 [AMG-319]	54

###

assay: Oral bioavailability in rat at 3 mg/kg by LC-MS/MS analysis; assay type: ADME, organism-based; details: in vivo
MEASURED METRIC: bioavailability (%)

CPD SMILES	MEASURED METRIC	MEAS VALUE
C[C@H]1Cc2ccccc2N1C(=O)Cc1nc(N2CCOCC2)cc(=O)[nH]1	bioavailability	70

###

experiment: Clearance in mouse at 1 mg/kg, iv; type: ADME, organism-based; settings: in vivo

CPD SMILES	clearance [mL/min/kg]
C[C@H](NC(=O)c1c(N)ccc2cccnc12)c1cc2cccc(Cl)c2c(=O)n1-c1ccccc1	9.2

###

assay: AUC in mouse plasma at 50 mg/kg, po; assay type: ADME, organism-based; conditions: in vivo
MEASURED METRIC: AUC (µM·h)

CPD SMILES	UNITS TEXT	MEAS VALUE
C[C@H](NC(=O)c1c(N)ccc2cccnc12)c1cc2cccc(Cl)c2c(=O)n1-c1ccccc1	µM·h	121

###

test: Oral bioavailability in mouse at 1 mg/kg; assay type: ADME, organism-based; settings: in vivo

CPD SMILES	bioavailability [%]
CC1(C)OCCn2c1nc1c(N3CCOCC3)nc(-c3cnc(N)nc3)nc12	75

###

experiment: Cmax in mouse plasma at 50 mg/kg, po; type: ADME, organism-based
MEASURED METRIC: Cmax (µM)

CPD SMILES	MEAS VALUE
C[C@H](NC(=O)c1c(N)ccc2cccnc12)c1cc2cccc(Cl)c2c(=O)n1-c1ccccc1	24

###

experiment: Oral bioavailability in mouse plasma at 50 mg/kg by LC-MS/MS analysis; format: ADME, organism-based

CPD SMILES	bioavailability
C[C@H](NC(=O)c1c(N)ccc2cccnc12)c1cc2cccc(Cl)c2c(=O)n1-c1ccccc1	66%
